The entries below are paired with their reported zone of inhibition at 100 µg/mL.
# Tested on: Bacillus subtilis
# PROTOCOL_TEXT: Antibacterial activity against Bacillus subtilis MTCC 8509 at 100 ug/mL by agar well diffusion method
# Type: functional
# TEST_SETTINGS: read-out: DIZ
Use mm as the unit, but write only the number.

Known results for compounds:
| STRUCTURE_AS_SMILES | SYSTEM_NAME | MEASUREMENT_UNIT | ASSAY_VALUE |
| --- | --- | --- | --- |
| CN[C@@H]1[C@H](O[C@H]2[C@H](O[C@H]3[C@H](O)[C@@H](O)[C@H](N=C(N)N)[C@@H](O)[C@@H]3N=C(N)N)O[C@@H](C)[C@]2(O)C=O)O[C@@H](CO)[C@H](O)[C@H]1O | Bacillus subtilis | mm | 73.2 |
| COc1ccc(OC)c(-c2nnc3cc(C)nc(C)n23)c1 | Bacillus subtilis | mm | 11.3 |
| COc1ccc(-c2nnc3cc(C)nc(C)n23)cc1 | Bacillus subtilis | mm | 59.7 |
| Cc1cc2nnc(-c3ccccc3)n2c(C)n1 | Bacillus subtilis | mm | 13.3 |
| Cc1cc2nnc(-c3ccc(Cl)cc3Cl)n2c(C)n1 | Bacillus subtilis | mm | 67.3 |

Quick one: zone of inhibition at 100 µg/mL of Cc1cc2nnc(-c3ccc([N+](=O)[O-])cc3)n2c(C)n1 ?
14.3

Then Cc1cc2nnc(-c3ccc(Br)cc3)n2c(C)n1 ?
59.3

Then Cc1ccc(-c2nnc3cc(C)nc(C)n23)cc1 ?
42.1

Then O=C(N[C@H](CO)[C@H](O)c1ccc([N+](=O)[O-])cc1)C(Cl)Cl ?
74.2

Then Cc1cc2nnc(-c3ccc(F)cc3)n2c(C)n1 ?
41.7
